# ASSAY SYSTEM: T1, VLP2 (virus-like particles of AAV2) (AAV2, UniProt P03135 1-735; P03135 1-598; P03135 1-533)
# T1 construct: Empty AAV2 capsid; background says about 60 protein molecules, VP1:VP2:VP3 = 1:1:10; Immobilised on the ELISA plate
# T1 sequence (P03135 whole entry, chain 1 of 3): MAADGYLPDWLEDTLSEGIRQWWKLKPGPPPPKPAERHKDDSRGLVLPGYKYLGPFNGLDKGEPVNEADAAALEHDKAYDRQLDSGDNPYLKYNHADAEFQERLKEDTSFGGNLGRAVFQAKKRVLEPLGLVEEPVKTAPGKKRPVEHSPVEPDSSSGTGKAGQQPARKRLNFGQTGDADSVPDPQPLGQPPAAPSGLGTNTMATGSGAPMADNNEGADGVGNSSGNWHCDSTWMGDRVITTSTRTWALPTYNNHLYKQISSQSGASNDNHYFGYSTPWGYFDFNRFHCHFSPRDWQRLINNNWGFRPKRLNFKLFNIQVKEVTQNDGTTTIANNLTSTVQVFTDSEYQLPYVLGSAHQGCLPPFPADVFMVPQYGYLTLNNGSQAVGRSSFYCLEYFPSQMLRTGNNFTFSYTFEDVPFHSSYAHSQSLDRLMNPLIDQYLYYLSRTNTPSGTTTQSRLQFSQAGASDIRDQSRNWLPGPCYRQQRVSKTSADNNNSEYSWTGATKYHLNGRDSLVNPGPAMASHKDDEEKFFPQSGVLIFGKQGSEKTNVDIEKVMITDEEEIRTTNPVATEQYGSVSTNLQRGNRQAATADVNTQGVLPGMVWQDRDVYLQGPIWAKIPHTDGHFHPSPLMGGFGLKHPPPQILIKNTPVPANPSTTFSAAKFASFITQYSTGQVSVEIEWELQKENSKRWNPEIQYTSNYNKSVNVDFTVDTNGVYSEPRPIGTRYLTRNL
# T1 sequence (P03135 139-735, tags left off, chain 2 of 3): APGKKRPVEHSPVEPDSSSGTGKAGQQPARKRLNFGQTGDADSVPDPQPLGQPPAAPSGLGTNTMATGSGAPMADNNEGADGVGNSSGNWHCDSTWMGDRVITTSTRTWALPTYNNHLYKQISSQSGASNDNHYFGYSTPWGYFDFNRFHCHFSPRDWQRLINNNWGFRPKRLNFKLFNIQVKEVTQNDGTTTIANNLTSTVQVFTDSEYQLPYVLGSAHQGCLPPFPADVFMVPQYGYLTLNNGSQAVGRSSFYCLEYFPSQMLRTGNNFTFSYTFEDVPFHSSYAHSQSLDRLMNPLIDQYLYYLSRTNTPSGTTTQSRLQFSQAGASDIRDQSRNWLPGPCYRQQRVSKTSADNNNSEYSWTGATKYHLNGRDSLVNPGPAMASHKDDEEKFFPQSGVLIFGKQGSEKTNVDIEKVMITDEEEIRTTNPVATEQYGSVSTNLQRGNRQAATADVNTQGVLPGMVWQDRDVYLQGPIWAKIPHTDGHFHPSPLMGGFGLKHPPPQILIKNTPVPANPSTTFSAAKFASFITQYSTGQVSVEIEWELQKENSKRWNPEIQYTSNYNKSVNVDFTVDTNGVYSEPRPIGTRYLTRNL
# T1 sequence (P03135 203-735, chain 3 of 3): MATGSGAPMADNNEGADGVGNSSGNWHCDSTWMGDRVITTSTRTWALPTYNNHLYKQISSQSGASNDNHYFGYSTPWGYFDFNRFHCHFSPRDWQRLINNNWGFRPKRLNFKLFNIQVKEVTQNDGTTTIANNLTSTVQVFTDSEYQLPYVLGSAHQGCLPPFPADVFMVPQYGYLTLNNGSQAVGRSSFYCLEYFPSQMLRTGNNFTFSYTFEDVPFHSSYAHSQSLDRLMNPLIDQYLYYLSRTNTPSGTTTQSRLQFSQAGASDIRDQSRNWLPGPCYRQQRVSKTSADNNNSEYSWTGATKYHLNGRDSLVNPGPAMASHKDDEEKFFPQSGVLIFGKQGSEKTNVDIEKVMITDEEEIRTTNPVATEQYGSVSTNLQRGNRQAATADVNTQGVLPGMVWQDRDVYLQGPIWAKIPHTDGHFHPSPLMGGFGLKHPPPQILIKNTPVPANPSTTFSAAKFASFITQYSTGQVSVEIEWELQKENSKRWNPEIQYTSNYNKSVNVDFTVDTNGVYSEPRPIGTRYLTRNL
# EXPERIMENT NOTES: ELISA on VLP2; binding after pH 10.0 41.2°C 15 min / untreated
Labelling field: enter 1 (yes) if recorded Residual activity [%] is less than 60%. Enter 0 (no) if it equals or exceeds that cut-off.

BINDER	ANSWER LABEL
AAV-binding protein No. 132 (AVR8g + Gln327His, Glu378Val) (receptor) MGSAGESDQITLPKNEVHLNAYVLQEPPKGETCTYDWQLITHPRDYSGEMEGEHSQILKLSNLTPGLYVFKVIVEGQNAHSEGYVNVTVEPEPRKNRPPIAIVSPQFQEISLPTTSTVIDGSQSTDDDKIVQYHWEELKGPLREEKISEDTAILKLSKLVPGNYTFRLTVVDSDGATDSTTANLTVNKAVDHHHHHH	1 (yes)
AAV-binding protein No. 115 (AVR8g + Leu372Gln) (receptor) MGSAGESDQITLPKNEVQLNAYVLQEPPKGETCTYDWQLITHPRDYSGEMEGEHSQILKLSNQTPGLYEFKVIVEGQNAHSEGYVNVTVEPEPRKNRPPIAIVSPQFQEISLPTTSTVIDGSQSTDDDKIVQYHWEELKGPLREEKISEDTAILKLSKLVPGNYTFRLTVVDSDGATDSTTANLTVNKAVDHHHHHH	0 (no)
AAV-binding protein No. 139 (AVR8g + Leu369Gln, Pro374Leu) (receptor) MGSAGESDQITLPKNEVQLNAYVLQEPPKGETCTYDWQLITHPRDYSGEMEGEHSQILKQSNLTLGLYEFKVIVEGQNAHSEGYVNVTVEPEPRKNRPPIAIVSPQFQEISLPTTSTVIDGSQSTDDDKIVQYHWEELKGPLREEKISEDTAILKLSKLVPGNYTFRLTVVDSDGATDSTTANLTVNKAVDHHHHHH	0 (no)
AAV-binding protein No. 110 (AVR8g + Glu360Val) (receptor) MGSAGESDQITLPKNEVQLNAYVLQEPPKGETCTYDWQLITHPRDYSGEMVGEHSQILKLSNLTPGLYEFKVIVEGQNAHSEGYVNVTVEPEPRKNRPPIAIVSPQFQEISLPTTSTVIDGSQSTDDDKIVQYHWEELKGPLREEKISEDTAILKLSKLVPGNYTFRLTVVDSDGATDSTTANLTVNKAVDHHHHHH	1 (yes)
AAV-binding protein No. 125 (AVR8g + His443Leu) (receptor) MGSAGESDQITLPKNEVQLNAYVLQEPPKGETCTYDWQLITHPRDYSGEMEGEHSQILKLSNLTPGLYEFKVIVEGQNAHSEGYVNVTVEPEPRKNRPPIAIVSPQFQEISLPTTSTVIDGSQSTDDDKIVQYLWEELKGPLREEKISEDTAILKLSKLVPGNYTFRLTVVDSDGATDSTTANLTVNKAVDHHHHHH	1 (yes)
AAV-binding protein No. 108 (AVR8g + Met359Leu) (receptor) MGSAGESDQITLPKNEVQLNAYVLQEPPKGETCTYDWQLITHPRDYSGELEGEHSQILKLSNLTPGLYEFKVIVEGQNAHSEGYVNVTVEPEPRKNRPPIAIVSPQFQEISLPTTSTVIDGSQSTDDDKIVQYHWEELKGPLREEKISEDTAILKLSKLVPGNYTFRLTVVDSDGATDSTTANLTVNKAVDHHHHHH	1 (yes)
